Tested on: TYKNU
procedure details: fractional viability relative to vehicle; TYKNU is a high-grade serous ovarian cancer line; higher = less growth inhibition
measurement parameters: 2uM; 72 h; genotype: OPA1 knockout (sgOPA1 #2)
Where a name gives a salt, the structure may show the parent alone. Whole data set: some 2,000 compounds, median “fractional viability relative to vehicle” near 0.92, cut for the lowest 2% near 0.11. The list comes from a sample in which the lowest values are over-represented; it also holds close analogues and randomly drawn compounds.
measured attribute: fractional viability
Number only, no unit.

Task: Provide fractional viability value for the following molecule: CCCCc1oc2ccccc2c1C(=O)c1cc(I)c(OCCN(CC)CC)c(I)c1 [Amiodarone HCl]
Output: 0.994

Task: // fetch fractional viability given entry COc1ccc(CCC(=O)Nc2nc3ccc(Cl)cc3s2)cc1OC
Output: 0.989

Task: For the molecule CCS(=O)(=O)N1CCN(c2ccc(Nc3ncc(C(N)=O)c(NC4CC4)n3)cc2)CC1 , report fractional viability.
Output: 0.781

Task: Given CCN1CCN(Cc2ccc(C(=O)Nc3ccc(C)c(Oc4ccc5c(c4)CC(=O)N5)c3)cc2C(F)(F)F)CC1 , respond with its fractional viability.
Output: 0.782

Task: Give fractional viability for the following molecule: Cc1nc(N(C)C(=O)Cc2ccc(-c3ccccn3)cc2)sc1S(N)(=O)=O [Pritelivir (BAY 57-1293)]
Output: 0.924

Task: Give a short answer stating reported fractional viability for COc1ccc(-c2cnc3c(-c4cccc5ncccc45)cnn3c2)cc1 .
Output: 1.15

Task: Report measured fractional viability; entry is Cc1cncc(CN2CCC(=C3c4ccc(Cl)cc4CCc4cccnc43)CC2)c1 [Rupatadine Fumarate]
Output: 1.06

Task: State its fractional viability: O=C1O[C@H]([C@@H](O)CO)C([O-])=C1O.[Na+] [Sodium ascorbate]
Output: 1.02

Task: Look up and report measured fractional viability for this entry: CC1(C)CC[C@]2(NC(=O)C(C)(F)F)CC[C@]3(C)[C@H](C(=O)C=C4[C@@]5(C)C=C(C#N)C(=O)C(C)(C)[C@@H]5CC[C@]43C)[C@@H]2C1 [Omaveloxolone (RTA-408)]
Output: 0.166

Task: Could you please provide reported fractional viability for CC1=CC(=O)c2ccccc2C1=O [Menadione] ? Thanks!
Output: 0.94

Task: Tell me measured fractional viability for COc1ccc2c(c1)CCC1C2CCC2(C)C(NCCCCCCN3C(=O)C=CC3=O)CCC12 (centres undefined) please.
Output: 0.747

Task: Kindly indicate its recorded fractional viability. Item: COc1cc2c(cc1OC)CN(CCc1ccc(NC(=O)c3cc(OC)c(OC)cc3NC(=O)c3cnc4ccccc4c3)cc1)CC2 [Tariquidar]
Output: 0.891

Task: Input Cc1c(CN2CCN(C(=O)[C@H](C)O)CC2)sc2c(N3CCOCC3)nc(-c3cnc(N)nc3)nc12 , output reported fractional viability.
Output: 0.392

Task: Read off the recorded fractional viability for NC(=O)N/N=C/c1ccc([N+](=O)[O-])o1 [Nitrofural]
Output: 1.55

Task: Give the reported fractional viability for this molecule. CC(C)n1cnc2c(NCCc3ccc(O)cc3)nc(-c3csc4ccccc34)nc21 [StemRegenin 1 (SR1)]
Output: 1.1

Task: State, in one line, measured fractional viability of C#CC[C@H](c1nc2cc(Cl)ccc2c(=O)n1Nc1ccccc1)N(CCCN)C(=O)c1cccc(Cl)c1F
Output: 0.562

Task: In one line, give reported fractional viability of the entry COc1cc2/c(=N/c3ccc(Br)cc3F)nc[nH]c2cc1OCC1CCN(C)CC1 [Vandetanib (ZD6474)] .
Output: 1.31

Task: Report fractional viability for COc1ccc(-c2nc(N3CCOCC3)c3sc(CN(C)c4ncc(C(=O)NO)cn4)cc3n2)cn1
Output: 0.118

Task: Report fractional viability, nothing else, for this molecule: CC(=O)[C@@]1(O)CC[C@H]2[C@@H]3CCC4=CC(=O)CCC4=C3[C@@H](c3ccc(N(C)C)cc3)C[C@@]21C [Ulipristal]
Output: 0.841

Task: Give a short answer stating reported fractional viability for COc1cc(/C=C/C(=O)N2CCN(CC(=O)N3CCCC3)CC2)cc(OC)c1OC [Cinepazide maleate] .
Output: 0.929

Task: Report measured fractional viability; entry is C=C1/C(=C\C=C2/CCC[C@]3(C)[C@@H]([C@H](C)CCCC(C)(C)O)CC[C@@H]23)C[C@@H](O)C[C@@H]1O [Calcitriol]
Output: 0.965

Task: Complete the entry with fractional viability for CCCC(=O)Nc1cccc(NC(=O)c2ccccc2Br)c1
Output: 1

Task: Provide one value: measured fractional viability of CCCCc1oc2ccc(NS(C)(=O)=O)cc2c1C(=O)c1ccc(OCCCN(CCCC)CCCC)cc1 [Dronedarone HCl]
Output: 0.835

Task: Give the reported value of fractional viability for this record: NC(CO)(CO)CO [Trometamol]
Output: 0.883
